Provenance of the data: patent US20230159510A1

target: PRMT5/MEP50 (Homo sapiens, UniProt O14744); assay: MTase-Glo methyl transferase assay, Method A (Histone H4 peptide, 1 µM MTA, 24 h pre-incubation); format: biochemical; design: made in house; details: read-out: PRMT5 MTase Glo Ki (nM, Meth. A)
Sequence (O14744 whole entry): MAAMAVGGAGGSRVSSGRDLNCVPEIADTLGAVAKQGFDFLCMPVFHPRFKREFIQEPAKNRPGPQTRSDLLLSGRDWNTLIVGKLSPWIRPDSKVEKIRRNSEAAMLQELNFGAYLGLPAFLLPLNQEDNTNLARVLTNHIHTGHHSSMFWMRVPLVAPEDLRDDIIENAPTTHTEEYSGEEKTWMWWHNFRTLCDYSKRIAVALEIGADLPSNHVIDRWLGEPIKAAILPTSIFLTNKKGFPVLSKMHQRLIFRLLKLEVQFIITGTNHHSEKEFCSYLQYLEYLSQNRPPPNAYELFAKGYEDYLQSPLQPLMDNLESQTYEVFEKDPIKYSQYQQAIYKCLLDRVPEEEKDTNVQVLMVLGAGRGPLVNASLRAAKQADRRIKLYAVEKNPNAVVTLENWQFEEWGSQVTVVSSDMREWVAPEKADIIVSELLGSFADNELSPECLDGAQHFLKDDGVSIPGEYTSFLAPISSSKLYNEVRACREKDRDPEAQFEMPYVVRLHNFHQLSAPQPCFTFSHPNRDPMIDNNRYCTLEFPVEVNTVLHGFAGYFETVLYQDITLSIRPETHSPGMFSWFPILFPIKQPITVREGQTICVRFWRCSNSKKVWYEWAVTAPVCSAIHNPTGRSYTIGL
Sequence (Q9BQA1 whole entry partner): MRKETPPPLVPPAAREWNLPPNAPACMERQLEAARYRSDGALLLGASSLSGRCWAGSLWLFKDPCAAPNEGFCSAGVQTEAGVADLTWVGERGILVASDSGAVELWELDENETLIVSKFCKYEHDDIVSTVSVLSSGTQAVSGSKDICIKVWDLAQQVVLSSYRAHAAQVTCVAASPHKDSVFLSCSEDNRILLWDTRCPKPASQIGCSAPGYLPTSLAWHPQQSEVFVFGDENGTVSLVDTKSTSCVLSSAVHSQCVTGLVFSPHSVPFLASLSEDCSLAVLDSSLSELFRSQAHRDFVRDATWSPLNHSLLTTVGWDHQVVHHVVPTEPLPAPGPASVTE
Cut-off 0.2 nM on Ki: below means true, at or above means false.

Does Cc1cc2cc(C(=O)N(Cc3ccc(C(F)(F)F)cn3)[C@@H]3CCC[C@H]3O)ccc2nc1N have Ki strictly under 0.2 nM? true

Read the next record carefully.
Does the reported Ki of the following compound sit strictly below 0.2 nM? Cc1cc2cc(C(=O)N(Cc3ccc(Cl)c(C)n3)[C@H](C)c3ncccn3)ccc2nc1N (single isomer, unassigned) true

* * *

biological target: PRMT5/MEP50 (Homo sapiens, UniProt O14744); test: MTase-Glo methyl transferase assay, Method A (Histone H4 peptide, 1 µM MTA, 24 h pre-incubation); type: biochemical; set-up: made in house; settings: read-out: PRMT5 MTase Glo Ki (nM, Meth. A)
Quantity: Ki (nM)
Numeric answer only, unit nM assumed.

The compound Cc1cc2cc(C(=O)N(Cc3ccc(C(F)(F)F)nn3)[C@H](C)c3cscn3)ccc2nc1N (single isomer, unassigned) [Example 533] showed Ki equal to 0.02

---
Entry COc1ccc(CN(C(=O)c2ccc3nc(N)c(C)cc3c2)[C@H](C)c2ncccn2)nn1 (single isomer, unassigned) [Example 517] — recorded Ki = 0.07

In plain terms, Cc1cc2cc(C(=O)N(Cc3ccc(C(F)(F)F)cn3)Cc3c(F)cccc3F)ccc2nc1N [Example 344] has a documented Ki of 0.1

Form: compound = CC[C@H](c1ncccn1)N(Cc1ccc(C(F)F)cn1)C(=O)c1ccc2nc(N)c(Br)cc2c1 (single isomer, unassigned) [Example 501] ; Ki = 0.02

Quick note, Ki for Cc1cc2cc(C(=O)N(Cc3ncc(C#N)cc3C)[C@H](C)c3ncccn3)ccc2nc1N [Example 549] landed at 0.07

response.value for Cc1cc2cc(C(=O)N(Cc3ccc(C#N)cn3)[C@H](C)c3ncccn3)c(Cl)cc2nc1N [Example 438] (field: Ki) = 0.76

Consider Cc1cc2cc(C(=O)N(Cc3ccc(C(F)(F)F)cn3)C3CC3)c(F)cc2nc1N [Example 332] . Its measured Ki is 4.87

* * *

molecular target: PRMT5/MEP50 (Homo sapiens, UniProt O14744); assay: MTase-Glo methyl transferase assay, Method B (FL-Histone H2A, 1 µM MTA, 1 h pre-incubation); format: biochemical; design: purchased Reaction Biology Corp RD-11-292; conditions: read-out: PRMT5 MTase Glo Ki (nM, Meth. B)
Sequence (O14744 2-637 limits assumed): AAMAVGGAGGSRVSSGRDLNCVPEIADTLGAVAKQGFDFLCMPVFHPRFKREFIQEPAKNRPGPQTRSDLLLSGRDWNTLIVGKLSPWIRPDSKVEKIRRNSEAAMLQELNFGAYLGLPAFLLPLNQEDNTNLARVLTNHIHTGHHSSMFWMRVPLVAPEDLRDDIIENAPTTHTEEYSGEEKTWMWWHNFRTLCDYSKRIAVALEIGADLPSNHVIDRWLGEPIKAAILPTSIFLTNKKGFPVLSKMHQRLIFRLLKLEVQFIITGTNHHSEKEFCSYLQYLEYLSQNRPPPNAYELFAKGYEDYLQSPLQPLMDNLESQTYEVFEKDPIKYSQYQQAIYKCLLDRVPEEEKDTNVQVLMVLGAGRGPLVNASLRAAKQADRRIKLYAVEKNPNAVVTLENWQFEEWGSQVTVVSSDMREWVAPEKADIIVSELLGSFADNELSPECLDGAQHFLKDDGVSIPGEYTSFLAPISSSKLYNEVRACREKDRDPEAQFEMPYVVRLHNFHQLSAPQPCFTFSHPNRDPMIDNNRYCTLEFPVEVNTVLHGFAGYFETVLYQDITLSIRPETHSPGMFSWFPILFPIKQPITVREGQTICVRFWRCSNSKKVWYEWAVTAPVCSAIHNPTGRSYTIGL
Sequence (Q9BQA1 2-342 partner limits assumed): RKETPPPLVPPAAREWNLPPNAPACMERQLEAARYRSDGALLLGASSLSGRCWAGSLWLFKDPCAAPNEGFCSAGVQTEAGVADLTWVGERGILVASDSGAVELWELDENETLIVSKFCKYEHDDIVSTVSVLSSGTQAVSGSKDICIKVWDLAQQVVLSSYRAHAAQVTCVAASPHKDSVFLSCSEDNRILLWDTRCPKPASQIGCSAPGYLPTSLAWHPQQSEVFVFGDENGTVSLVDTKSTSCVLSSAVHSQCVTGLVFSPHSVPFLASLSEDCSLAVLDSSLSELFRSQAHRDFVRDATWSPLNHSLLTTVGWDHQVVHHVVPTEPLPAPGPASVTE
Quantity: Ki (nM)
Just the number please, in nM, no unit attached.

Some molecules with recorded Ki:
Notebook: Cc1ccc2c(c1)C(N(Cc1ccc(C(F)(F)F)cn1)C(=O)c1ccc3nc(N)c(C)cc3c1)CC2 (centres unmarked) , Ki read as 5.19

Recorded Ki (molecule Cc1cc2cc(C(=O)N(Cc3ccc(C(F)(F)F)cn3)C3CCCc4[nH]ccc43)ccc2nc1N (centres unmarked) ): 23.7

New cases:
Just so you know, measured Ki for Cc1cc2cc(C(=O)N(Cc3ccc(C(F)(F)F)cn3)C3CC(C)c4ccccc43)ccc2nc1N (centres unmarked) came out at 21.5

Sure, the documented Ki for Cc1cc2cc(C(=O)N(Cc3cncc(F)c3)Cc3ccccc3F)ccc2nc1N is 14.9

Please fill in: Ki reported for Cc1cc2cc(C(=O)N(Cc3ccc(C(F)(F)F)cn3)[C@@H]3c4ccccc4C[C@H]3O)ccc2nc1N = 26.8

Cc1cc2cc(C(=O)N(Cc3ccc(C(F)(F)F)cn3)C(C)c3cccc(O)c3)ccc2nc1N (centres unmarked) has a reported Ki of 1.7

Per the records, this molecule ( CC#CCN(Cc1ccc(C(F)(F)F)cn1)C(=O)c1ccc2nc(N)c(C)cc2c1 ) has Ki equal to 5.34

Just so you know, measured Ki for Cc1cc2cc(C(=O)N(CC#CCO)Cc3ccc(C(F)(F)F)cn3)ccc2nc1N came out at 12.6

* * *

system: HCT116 MTAP null cells; experiment: HCT116 proliferation assay, MTAP null cells (CellTiter-Glo, 6 days); format: cell-based; details: HCT116-MTAP null, 144 h, read-out: Protif_ HCT116-MTAP null IC50
pIC50: −log10 of the molar value.
Each entry gets No if its pIC50 stays under 7, and Yes if its pIC50 is 7 or above.

The following molecules have reported results that may help.
Reported pIC50 at or above 7? Cc1cc2cc(C(=O)N(Cc3ccc(C(F)(F)F)cn3)[C@@H]3CCC[C@H]3OC(F)F)ccc2nc1N [Example 816] Yes

Please check the record Cc1cc2cc(C(=O)N(Cc3ccc(C(F)(F)F)cn3)Cc3ncc(Cl)cc3F)ccc2nc1N [Example 304] and state if its pIC50 is at or above 7. No

Kindly determine if pIC50 recorded for Cc1cc2cc(C(=O)N(Cc3ccc(C#N)c(C)n3)[C@H](C)c3ncccn3)ccc2nc1N [Example 750] is above or exactly 7. No

Further cases:
Does Nc1nc2ccc(C(=O)N(Cc3ccc(C(F)(F)F)cn3)Cc3ncccn3)cc2cc1Br [Example 317] have a reported pIC50 of at least 7? No

Check if pIC50 >= 7 (inclusive). Item: C[C@H](c1ncccc1F)N(Cc1ccc(C(F)(F)F)nn1)C(=O)c1cnc2nc(N)c(Br)cc2c1 [Example 397] No

* * *

test system: HCT116 WT cells; experiment: HCT116 proliferation assay, WT cells (CellTiter-Glo, 6 days); format: cell-based; conditions: Homo sapiens, HCT-116, 144 h, read-out: Prolif_HCT116-WT IC50
Quantity: pIC50
# pIC50: negative log10 of molar concentration; output just the value

Examples with answers:
molecule COc1ccc(CN(C(=O)c2ccc3nc(N)c(Br)cc3c2)[C@H](C)c2ncccc2F)nn1 [Example 736] , pIC50 observed: 5.16

For this molecule ( Cc1cc2cc(C(=O)N(Cc3ccc(F)cn3)Cc3ccc(C(F)(F)F)cn3)ccc2nc1N [Example 383] ), measured pIC50 is 5.27

Value of pIC50 reported for the molecule COC[C@@H](C)N(Cc1ccc(C(F)(F)F)cn1)C(=O)c1ccc2nc(N)c(C)cc2c1 [Example 507] is 6.04

Next:
Query Cc1cc2cc(C(=O)N(Cc3ccc(C4CC4)cn3)CC(C)C)ccc2nc1N [Example 546] yields pIC50 of 5.36

Documented pIC50 of Cc1c(Br)c(N)nc2ncc(C(=O)N(Cc3ccc(C(F)(F)F)cn3)[C@H](C)c3ncccn3)cc12 [Example 743] : 6.16

response.value for Cc1cc2cc(C(=O)N(Cc3ncc(C(F)(F)F)s3)[C@H](C)c3ncccn3)ccc2nc1N (single isomer, unassigned) [Example 492] (field: pIC50) = 5.47

Entry under test: C[C@H](c1ncccn1)N(Cc1ccc(C(F)(F)F)cn1)C(=O)c1cnc2nc(N)c(Cl)cc2c1 [Example 420] . Its pIC50 was 5.46

So for Cc1cc2cc(C(=O)N(Cc3ccc(C(F)(F)F)cn3)CC3(C#N)CC3)ccc2nc1N [Example 577] , the logged pIC50 turned out to be 5.18

* * *

molecular target: PRMT5/MEP50 (Homo sapiens, UniProt O14744); experiment: MTase-Glo methyl transferase assay, Method A (Histone H4 peptide, 1 µM MTA, 24 h pre-incubation); assay type: biochemical; parameters: made in house; conditions: read-out: PRMT5 MTase Glo Ki (nM, Meth. A)
// bucketize Ki: group A: < 0.1 nM; group B: ≥ 0.1 nM and < 0.6 nM; group C: ≥ 0.6 nM

Study these solved cases before continuing.
Returns: class label. Input: COC(=O)N1CC=C(c2ccc(CN(C(=O)c3ccc4nc(N)c(C)cc4c3)[C@H](C)c3ncccn3)nc2)CC1 group B

Dear colleague, I would appreciate it if you could identify the bin for Cc1cc2cc(C(=O)N(Cc3ccc(C(F)(F)F)cn3)[C@@H]3CCCC[C@H]3O)ccc2nc1N and reply at your convenience. group C

Class for Cc1cc2cc(C(=O)N(Cc3ccc(C(F)(F)F)nn3)[C@@H]3CCOc4cccnc43)ccc2nc1N (single isomer, unassigned) ? group A

Textbook exercise: identify the category of the compound given here, Cc1cc2cc(C(=O)N(Cc3ccc(C(F)(F)F)cn3)[C@@H]3COCC[C@@H]3O)ccc2nc1N (single isomer, unassigned) , according to its measured value. group B

New cases:
Lab note: which band did Cc1cc2cc(C(=O)N(Cc3ccc(Br)nn3)[C@H](C)c3ncccn3)ccc2nc1N (single isomer, unassigned) land in? group B

Band assignment needed for Cc1cc2cc(C(=O)N(Cc3ccc(F)cn3)Cc3ccc(C(F)(F)F)cn3)ccc2nc1N please. group C

Exam item: assign Cc1cc2cc(C(=O)N(Cc3ccc(C(F)(F)F)nn3)[C@@H]3CCC[C@H]3O)ccc2nc1N to the correct category. group B

Assign a category based on measured Ki for COc1ccc(CN(C(=O)c2cc3cc(C)c(N)nc3cc2F)[C@H](C)c2ncccn2)nn1 (single isomer, unassigned) and give only the class name. group A

Band assignment needed for Cc1cc2cc(C(=O)N(Cc3ccc(N4CCC(F)(F)C4)cn3)[C@H](C)c3ncccn3)ccc2nc1N please. group C
